Target: CYP19 (aromatase) (Homo sapiens, UniProt P11511)
Sequence (P11511 whole entry): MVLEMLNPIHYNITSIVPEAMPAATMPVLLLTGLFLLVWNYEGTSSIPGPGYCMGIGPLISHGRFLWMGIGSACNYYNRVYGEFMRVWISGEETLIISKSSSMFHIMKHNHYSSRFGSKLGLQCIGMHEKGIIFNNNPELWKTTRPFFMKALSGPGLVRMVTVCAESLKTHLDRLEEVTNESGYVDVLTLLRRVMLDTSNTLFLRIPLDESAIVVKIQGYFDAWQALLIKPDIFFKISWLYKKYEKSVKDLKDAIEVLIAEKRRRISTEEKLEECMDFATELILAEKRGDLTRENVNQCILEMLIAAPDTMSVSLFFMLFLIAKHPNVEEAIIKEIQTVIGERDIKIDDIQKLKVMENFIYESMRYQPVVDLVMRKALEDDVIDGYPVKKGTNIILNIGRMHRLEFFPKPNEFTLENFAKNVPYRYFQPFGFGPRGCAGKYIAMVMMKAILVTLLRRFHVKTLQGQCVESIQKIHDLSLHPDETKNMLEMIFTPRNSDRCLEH
Assay: Inhibition of human recombinant CYP19 using [1beta-3H]androstenedione as substrate at 500 nM
Details: recombinant CYP19, probe [1beta-3H]androstenedione
property_name: inhibition at 0.5 µM (%)

[a] CN1C(=O)COc2cc(-c3cccnc3)ccc21
[b] O=C1CCc2cc(-c3cccnc3)ccc2N1
-- ask I need your help: which of the pair a , b has higher inhibition at 0.5 µM? Answer = label.
-- reply b
(b: 31%, a: 20%)
